Taken from patent US9745284B2.

Molecular target: human orexin-2 receptor (Homo sapiens (Human))
Sequence (O43614 whole entry): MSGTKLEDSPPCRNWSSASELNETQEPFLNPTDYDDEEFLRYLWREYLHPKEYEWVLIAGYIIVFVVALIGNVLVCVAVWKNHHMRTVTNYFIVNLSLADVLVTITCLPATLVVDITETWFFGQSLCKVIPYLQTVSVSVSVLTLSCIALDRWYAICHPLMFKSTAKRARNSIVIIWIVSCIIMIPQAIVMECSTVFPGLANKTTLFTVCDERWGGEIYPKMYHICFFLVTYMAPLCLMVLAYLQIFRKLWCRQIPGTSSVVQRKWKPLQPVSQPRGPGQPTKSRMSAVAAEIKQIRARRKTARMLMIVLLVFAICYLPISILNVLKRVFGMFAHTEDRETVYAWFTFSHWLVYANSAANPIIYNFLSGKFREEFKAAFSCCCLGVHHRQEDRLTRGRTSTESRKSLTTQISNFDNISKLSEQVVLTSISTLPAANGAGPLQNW
Assay: FLIPR Ca2+ flux assay, orexin-2 receptor
Assay type: cell-based
Conditions: CHO cells expressing human orexin-2 receptor; agonist 70 pM Ala-6,12 orexin-A; read-out: hOX2R FLIPR IC50
property: IC50 (nM)
Numbers only; they are read as nM.

{"columns": ["compound", "systemTested", "property", "number"],
 "data": [
  ["COc1ccnc(O[C@@H]2CC[C@@H](C)N(C(=O)c3ccc(F)cc3-n3nccn3)C2)c1 [Example 19]", "human orexin-2 receptor (Homo sapiens (Human))", "IC50", 22.1]
]}

Find the measured IC50 of C[C@@H]1CC[C@@H](Oc2cc(OCc3ccccc3)ccn2)CN1C(=O)c1ccccc1-n1nccn1 [Example 4] and report it.
59.4

Entry COc1ccnc(O[C@@H]2CC[C@@H](C)N(C(=O)c3ccccc3-n3ncnn3)C2)c1 [Example 6] needs its IC50 filled in; supply it.
19

Quickly give me recorded IC50 for C[C@@H]1CC[C@@H](Oc2cc(OCC(F)F)ccn2)CN1C(=O)c1ccc(F)cc1-n1nccn1 [Example 35]
62

Tell me IC50 reported for Cc1nc(-c2ccccc2C(=O)N2C[C@H](Oc3cc(OCC(F)F)ccn3)CC[C@H]2C)no1 [Example 38]
56

Give a short answer stating reported IC50 for C[C@@H]1CC[C@@H](Oc2cc(OC(F)F)ccn2)CN1C(=O)c1ccccc1-n1ncnn1 [Example 57] .
11

###

Target: UniProt O43614
Assay: FLIPR Ca2+ flux assay, orexin-2 receptor
Conditions: CHO cells expressing human orexin-2 receptor; agonist 70 pM Ala-6,12 orexin-A; read-out: hOX2R FLIPR IC50
IC50 strictly under 20 nM means fulfilled; at 20 nM or over means not fulfilled.

For orientation, consider the following solved cases.
{"columns": ["molSmiles", "systemTested", "label"],
 "data": [
  ["CC(C)Oc1ccnc(O[C@@H]2CC[C@@H](C)N(C(=O)c3ccccc3-n3nccn3)C2)c1", "UniProt O43614", "fulfilled"],
  ["C[C@@H]1CC[C@@H](Oc2cc(OCC(F)F)ccn2)CN1C(=O)c1ccccc1C1(C#N)CC1", "UniProt O43614", "not fulfilled"],
  ["COc1ccnc(O[C@@H]2CC[C@@H](C)N(C(=O)c3ccc(OC)nc3C3CC3)C2)c1", "UniProt O43614", "not fulfilled"],
  ["C[C@@H]1CC[C@@H](Oc2cc(OC(F)F)ccn2)CN1C(=O)c1ccsc1-n1nccn1", "UniProt O43614", "fulfilled"],
  ["COc1ccnc(O[C@@H]2CC[C@@H](C)N(C(=O)c3ccccc3-n3nccn3)C2)c1Br", "UniProt O43614", "fulfilled"],
  ["C[C@@H]1CC[C@@H](Oc2cc(OCC(F)(F)F)ccn2)CN1C(=O)c1ccccc1-n1nccn1", "UniProt O43614", "fulfilled"],
  ["COc1ccnc(O[C@@H]2CC[C@@H](C)N(C(=O)c3ccccc3-n3nccn3)C2)c1F", "UniProt O43614", "not fulfilled"],
  ["COc1ccnc(O[C@@H]2CC[C@@H](C)N(C(=O)c3cccc(F)c3-n3nccn3)C2)c1", "UniProt O43614", "fulfilled"]
]}

# ---- query compound ----
Is the reported IC50 for Cc1noc(-c2ccccc2C(=O)N2C[C@H](Oc3cc(OCC(F)F)ccn3)CC[C@H]2C)n1 strictly below 20 nM?
not fulfilled
